target: ATP-binding cassette sub-family B member 6 (Homo sapiens) (UniProt Q9NP58); assay: blockers of ABCB6-driven porphyrin uptake – K562-ABCB6 cells, flow cytometry, validation set, pilot screen (AID 588550); conditions: K562-ABCB6 porphyrin accumulation, 1 h, at 10 µM, active compounds read high;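 also: 0% = DMSO wells and 100% = benzethonium chloride 70 µM positive control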
Sequence (Q9NP58 whole entry, looked up): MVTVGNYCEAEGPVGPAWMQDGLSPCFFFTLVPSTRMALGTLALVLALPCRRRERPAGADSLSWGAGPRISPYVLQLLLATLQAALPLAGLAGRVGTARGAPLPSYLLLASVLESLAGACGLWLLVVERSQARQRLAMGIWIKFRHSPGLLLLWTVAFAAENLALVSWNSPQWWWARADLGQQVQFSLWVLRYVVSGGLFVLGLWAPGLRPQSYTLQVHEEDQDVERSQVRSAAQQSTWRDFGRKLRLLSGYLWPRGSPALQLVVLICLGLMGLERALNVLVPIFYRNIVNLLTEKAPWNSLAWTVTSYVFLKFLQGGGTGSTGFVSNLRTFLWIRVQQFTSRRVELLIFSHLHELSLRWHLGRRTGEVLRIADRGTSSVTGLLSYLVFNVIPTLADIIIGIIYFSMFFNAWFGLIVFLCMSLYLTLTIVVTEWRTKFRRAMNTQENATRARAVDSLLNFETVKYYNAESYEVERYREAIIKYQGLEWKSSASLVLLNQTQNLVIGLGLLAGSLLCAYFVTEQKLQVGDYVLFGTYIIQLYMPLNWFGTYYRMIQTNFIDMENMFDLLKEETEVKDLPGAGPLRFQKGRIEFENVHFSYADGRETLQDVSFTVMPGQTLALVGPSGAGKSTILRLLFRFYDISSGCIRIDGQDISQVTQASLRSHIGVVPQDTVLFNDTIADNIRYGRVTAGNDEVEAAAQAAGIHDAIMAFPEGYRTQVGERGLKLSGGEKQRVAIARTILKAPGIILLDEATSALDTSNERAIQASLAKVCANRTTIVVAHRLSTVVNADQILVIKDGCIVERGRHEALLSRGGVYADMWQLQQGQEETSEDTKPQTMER
Observable: inhibition (%)
State the answer as a number, implicitly in %.

Task: Hello, please tell me recorded inhibition for this one: CC1(C)C(=O)OC(C(=O)c2ccc(Cl)cc2)C(C)(C)C1=O (stereo not drawn)
Result: -4

Task: Hello, please tell me recorded inhibition for this one: Cc1cc(O)c(C(C)C)cc1C1(c2cc(C(C)C)c(O)cc2C)OC(=O)c2ccccc21
Result: 5

Task: Hello, please tell me recorded inhibition for this one: Cc1ccc2[nH]c3c(c2c1)CCNC3=O
Result: 7

Task: Hello, please tell me recorded inhibition for this one: CN(C)CCOCCOc1ccc(Cl)cc1Br
Result: 4

Task: Hello, please tell me recorded inhibition for this one: CC1=C(/C=C/C(C)=C/C=C/C(C)=C/C(=O)O)C(C)(C)CCC1
Result: -2

Task: Hello, please tell me recorded inhibition for this one: Cc1ccccc1NC(=O)C1(C)Cc2ccccc2C(=O)O1 (stereo not drawn)
Result: -4

Task: Hello, please tell me recorded inhibition for this one: CSCCC(NC(C)=O)C(=O)Oc1ccc2c3c(c(=O)oc2c1)CCCC3 (stereo not drawn)
Result: 11

Task: Hello, please tell me recorded inhibition for this one: CCCCOC(=O)c1ccc(N)cc1
Result: -2
